All figures here come from patent US20260297085A1.

ASSAY SYSTEM: human TYK2 kinase domain (JH1) (Homo sapiens, UniProt P29597)
Construct: recombinantly generated catalytic kinase (also known as JH1) domain of human JAK1, JAK2, JAK3 and TYK2
ASSAY EXPLANATION: JH1 biochemical assay for TYK2 (ADP-Glo kinase assay, recombinant JH1 catalytic domain, JAK3-974 peptide, 10 μM ATP)
TEST CONDITIONS: JH1 kinase domain, ADP-Glo
Counter-ions that a name gives are not always drawn.
Recorded measurements of IC50, one per entry

Examples with answers:
- Cn1cc(-c2cc3c(N4CCC(C#N)C4=O)ccnn3c2)cn1 (stereo not drawn) [Example 7]: > 100 nM
- C[C@@H]1CN(c2ccnn3cc(-c4cnn(C)c4)cc23)C(=O)[C@]1(C#N)C1CC1 [Example 34]: < 5 nM

IC50 for C[C@@H]1CN(c2ccnn3cc(-c4cn(C)cn4)cc23)C(=O)[C@]1(C#N)C1CC1 [Example 111, trifluoroacetate] ?
< 5 nM

IC50 for C[C@@H]1CN(c2ccnn3cc(-c4ccc5nccn5c4)cc23)C(=O)[C@]1(C#N)C1CC1 [Example 88] ?
< 5 nM

IC50 for Cc1nc(-c2cc3c(N4C[C@@H](C)[C@@](C#N)(C5CC5)C4=O)ccnn3c2)ccc1C#N [Example 119, trifluoroacetate] ?
20 to 50 nM

IC50 for COC[C@@]1(C#N)CCN(c2ccnn3cc(-c4cnn(C)c4)cc23)C1=O (single isomer, unassigned) [Example 40] ?
50 to 100 nM

IC50 for Cc1nn(C)cc1-c1cn2nccc2c(N2C[C@@H](C)[C@@](C#N)(C3CC3)C2=O)n1 [Example 208] ?
< 5 nM

IC50 for Cn1cc(-c2cc3c(N4CC[C@@](C(F)F)(C5CC5)C4=O)ccnn3c2)cn1 [Example 15] ?
> 100 nM

IC50 for C[C@@H]1CN(c2ccnn3cc(-c4cccnc4OC(F)F)cc23)C(=O)[C@]1(C#N)C1CC1 [Example 50] ?
50 to 100 nM

IC50 for C[C@@H]1CN(c2nc(-c3cnn(C4CCCC4)c3)cn3ncc(F)c23)C(=O)[C@]1(C#N)C1CC1 [Example 217] ?
< 5 nM

IC50 for C[C@@H]1CN(c2ccnn3cc(-c4ccc(C#N)nc4)cc23)C(=O)[C@]1(C#N)C1CC1 [Example 86, trifluoroacetate] ?
5 to 20 nM

IC50 for C[C@@H]1CN(c2nc(-c3cnn4c3COCC4)cn3ncc(F)c23)C(=O)[C@]1(C#N)C1CC1 [Example 192] ?
5 to 20 nM

IC50 for CC(=O)Nc1cccc(-c2cc3c(N4C[C@@H](C)[C@@](C#N)(C5CC5)C4=O)ccnn3c2)n1 [Example 131, trifluoroacetate] ?
< 5 nM

IC50 for C[C@@H]1CN(c2ccnn3cc(-c4cccc(CC#N)n4)cc23)C(=O)[C@]1(C#N)C1CC1 [Example 125, trifluoroacetate] ?
20 to 50 nM

IC50 for C[C@@H]1CN(c2ccnn3cc(-c4cncc(F)c4)cc23)C(=O)[C@]1(C#N)C1CC1 [Example 84] ?
5 to 20 nM

###

Recorded measurements of pIC50, one per entry
ASSAY SYSTEM: JAK2 kinase activity on STAT5 in TF1 cells (Homo sapiens)
ASSAY EXPLANATION: pSTAT5 cell assay (MSD; TF1 cells, 30 ng/mL IL-3 stimulation)
TEST CONDITIONS: 30 ng/mL IL-3, 15 minutes
pIC50: −log10 of the molar value. Where a name gives a salt, the structure may show the parent alone.

* Cn1cc(-c2cc3c(N4CC[C@@](C#N)(C5CC5)C4=O)ccnc3[nH]2)cn1 | 6.00 to 7.00
* C[C@@H]1CN(c2ccnn3cc(-c4ccnc(C(F)(F)F)c4)cc23)C(=O)[C@]1(C#N)C1CC1 | < 5.00
* Cn1cc(-c2cc3c(N4C[C@@H](C(F)F)[C@@](C#N)(C5CC5)C4=O)ccnn3c2)cn1 (racemic) | < 5.00
* C[C@@H]1CN(c2nc(-c3cnn(-c4cccnc4)c3)cn3nccc23)C(=O)[C@]1(C#N)C1CC1 | 6.00 to 7.00
* C[C@@H]1CN(c2nc(-c3ccc4cnn(C)c4c3)cn3nccc23)C(=O)[C@]1(C#N)C1CC1 [Example 259, trifluoroacetate] | 6.00 to 7.00

pIC50 for "Cc1cc(-c2cc3c(N4CC[C@@](C#N)(C5CC5)C4=O)ccnn3c2)on1" ?
< 5.00

pIC50 for "C[C@H]1CN(c2ccnn3cc(-c4cnn(C)c4)cc23)C(=O)[C@]1(C#N)C1CC1" ?
< 5.00

pIC50 for "C[C@@H]1CN(c2ccnn3c(F)c(-c4cnn(C)c4)cc23)C(=O)[C@]1(C#N)C1CC1" ?
< 5.00

###

ASSAY SYSTEM: Tyk2 kinase activity on STAT4 in NK92 cells (Homo sapiens)
ASSAY EXPLANATION: pSTAT4 cell assay (MSD; NK92 cells, 30 ng/mL IL2 stimulation)
TEST CONDITIONS: 30 ng/mL IL2, 15 minutes
Counter-ions that a name gives are not always drawn.
Recorded measurements of IC50, one per entry

* C[C@@H]1CN(c2ccnn3cc(-c4cnn(C56CC(C#N)(C5)C6)c4)cc23)C(=O)[C@]1(C#N)C1CC1 | 50 to 100 nM
* C[C@@H]1CN(c2nc(-c3cnn(CC4COC4)c3)cn3ncc(F)c23)C(=O)[C@]1(C#N)C1CC1 | 50 to 100 nM
* C[C@@H]1CN(c2ccnn3cc(-c4cnc5[nH]ccc5c4)cc23)C(=O)[C@]1(C#N)C1CC1 | 50 to 100 nM
* C[C@@H]1CN(c2ccnn3cc(-n4cc(CC#N)cn4)cc23)C(=O)[C@]1(C#N)C1CC1 | > 100 nM
* C[C@@H]1CN(c2ccnn3cc(-c4cc5ccccn5n4)cc23)C(=O)[C@]1(C#N)C1CC1 [Example 104, trifluoroacetate] | > 100 nM

IC50 for "C[C@@H]1CN(c2ccnn3cc(-c4ccn(C)n4)cc23)C(=O)[C@]1(C#N)C1CC1" ?
> 100 nM

IC50 for "C[C@@H]1CN(c2ccnn3cc(-c4cnn(-c5ccccn5)c4)cc23)C(=O)[C@]1(C#N)C1CC1" ?
> 100 nM

IC50 for "CC(C)n1cc(-c2cn3ncc(F)c3c(N3C[C@@H](C)[C@@](C#N)(C4CC4)C3=O)n2)cn1" ?
20 to 50 nM

IC50 for C[C@@H]1CN(c2nc(-c3ccc4c(cnn4C)c3)cn3nccc23)C(=O)[C@]1(C#N)C1CC1 [Example 225, trifluoroacetate] ?
> 100 nM

IC50 for C[C@@H]1CN(c2ccnn3cc(-c4cnc5cc(C#N)ccn45)cc23)C(=O)[C@]1(C#N)C1CC1 [Example 103, trifluoroacetate] ?
> 100 nM

###

ASSAY SYSTEM: JAK2 kinase activity on STAT5 in TF1 cells (Homo sapiens, UniProt O60674)
Sequence (O60674 whole entry): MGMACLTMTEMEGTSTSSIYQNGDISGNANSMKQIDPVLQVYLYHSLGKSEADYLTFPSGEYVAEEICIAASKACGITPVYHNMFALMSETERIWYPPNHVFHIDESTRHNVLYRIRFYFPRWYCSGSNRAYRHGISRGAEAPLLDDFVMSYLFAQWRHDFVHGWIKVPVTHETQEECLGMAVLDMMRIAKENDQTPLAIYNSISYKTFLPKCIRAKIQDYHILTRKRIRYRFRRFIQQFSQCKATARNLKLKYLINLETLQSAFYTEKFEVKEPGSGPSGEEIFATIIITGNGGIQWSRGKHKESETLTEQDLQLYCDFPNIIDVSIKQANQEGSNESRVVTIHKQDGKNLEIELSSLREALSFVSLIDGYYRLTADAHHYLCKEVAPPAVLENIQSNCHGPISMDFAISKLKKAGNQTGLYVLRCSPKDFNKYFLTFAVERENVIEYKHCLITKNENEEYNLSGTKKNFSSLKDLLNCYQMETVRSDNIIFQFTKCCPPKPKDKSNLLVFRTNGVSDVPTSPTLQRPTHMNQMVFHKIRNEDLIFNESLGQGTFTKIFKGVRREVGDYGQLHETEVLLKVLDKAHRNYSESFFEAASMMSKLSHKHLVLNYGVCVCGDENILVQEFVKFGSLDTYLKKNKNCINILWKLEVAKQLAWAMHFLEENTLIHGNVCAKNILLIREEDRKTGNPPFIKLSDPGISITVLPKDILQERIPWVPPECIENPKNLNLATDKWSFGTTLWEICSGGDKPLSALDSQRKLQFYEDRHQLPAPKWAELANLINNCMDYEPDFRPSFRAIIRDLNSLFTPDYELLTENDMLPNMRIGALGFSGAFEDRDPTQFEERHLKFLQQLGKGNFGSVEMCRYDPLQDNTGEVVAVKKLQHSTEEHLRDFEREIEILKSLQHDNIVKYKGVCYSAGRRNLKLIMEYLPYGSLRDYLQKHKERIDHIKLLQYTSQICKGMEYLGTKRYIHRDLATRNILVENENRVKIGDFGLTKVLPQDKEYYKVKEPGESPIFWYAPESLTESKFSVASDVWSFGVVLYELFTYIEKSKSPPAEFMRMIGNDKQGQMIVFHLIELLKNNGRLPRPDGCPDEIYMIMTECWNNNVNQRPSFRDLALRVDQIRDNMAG
ASSAY EXPLANATION: pSTAT5 cell assay (MSD; TF1 cells, 30 ng/mL IL-3 stimulation)
TEST CONDITIONS: 30 ng/mL IL-3, 15 minutes
Where a name gives a salt, the structure may show the parent alone.
READOUT TYPE: IC50

Examples with answers:
* C[C@@H]1CN(c2ccnn3cc(-c4cccc(C(F)F)n4)cc23)C(=O)[C@]1(C#N)C1CC1 [Example 135, trifluoroacetate] | > 10 µM
* COc1cc(-c2cc3c(N4CC[C@](C#N)(C5CC5)C4=O)ccnc3[nH]2)ccn1 | > 10 µM
* C[C@@H]1CN(c2nc(-c3ccnc(C(F)(F)F)c3)cn3nccc23)C(=O)[C@]1(C#N)C1CC1 [Example 234, trifluoroacetate] | > 10 µM

// next item, IC50 requested
# returns recorded IC50 (system: JAK2 kinase activity on STAT5 in TF1 cells (Homo sapiens, UniProt O60674)) for "C[C@@H]1CN(c2nc(-c3cnn(C4CCCCC4)c3)cn3ncc(F)c23)C(=O)[C@]1(C#N)C1CC1"
0.1 to 1 µM

###

ASSAY SYSTEM: human TYK2 kinase domain (JH1) (Homo sapiens)
Construct: recombinantly generated catalytic kinase (also known as JH1) domain of human JAK1, JAK2, JAK3 and TYK2
Sequence (P29597 897-1176 limits assumed): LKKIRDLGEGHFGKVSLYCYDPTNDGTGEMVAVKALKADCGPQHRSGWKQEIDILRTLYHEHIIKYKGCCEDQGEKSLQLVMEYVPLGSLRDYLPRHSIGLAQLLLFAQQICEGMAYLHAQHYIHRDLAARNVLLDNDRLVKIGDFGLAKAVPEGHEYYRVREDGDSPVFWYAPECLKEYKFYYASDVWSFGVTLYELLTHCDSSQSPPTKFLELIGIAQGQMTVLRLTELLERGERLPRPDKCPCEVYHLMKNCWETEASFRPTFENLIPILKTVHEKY
ASSAY EXPLANATION: JH1 biochemical assay for TYK2 (ADP-Glo kinase assay, recombinant JH1 catalytic domain, JAK3-974 peptide, 10 μM ATP)
TEST CONDITIONS: JH1 kinase domain, ADP-Glo
Protocol: Compounds of the disclosure were assessed for their ability to inhibit TYK2, JAK1, JAK2, and JAK3 activity. The inhibitory properties of the compounds of the disclosure described herein can be evidenced by testing in any one of the following protocols. The kinase activity of recombinantly generated catalytic kinase (also known as JH1) domain of human JAK1, JAK2, JAK3 and TYK2 were evaluated in a plate-based assay using the ADP-Glo™ Kinase Assay platform. […]
Counter-ions that a name gives are not always drawn.
READOUT TYPE: IC50

* C[C@@H]1CN(c2ccnn3cc(-c4nccc(O)c4C#N)cc23)C(=O)[C@]1(C#N)C1CC1 [Example 129, trifluoroacetate] | > 100 nM

IC50 for Cn1cc(-c2cc3c(N4C[C@@H](C(F)F)[C@@](C#N)(C5CC5)C4=O)ccnn3c2)cn1 (racemic) ?
20 to 50 nM

IC50 for C[C@@H]1CN(c2nc(-c3cnn(C4CC4(F)F)c3)cn3nccc23)C(=O)[C@]1(C#N)C1CC1 (stereo partly drawn) ?
< 5 nM
